# activity at 2 µg/mL annotations
Test system: P. falciparum 3D7 parasites
Assay: P. falciparum growth inhibition assay, 2-cycle (120 h treatment), delayed-death screen and dose-response
Assay type: cell-based, Plasmodium falciparum
Settings: Plasmodium falciparum, 3D7; P. falciparum, 120 h, screen at 2 μg/mL, replicate 2; read-out: Pf_120h_%Growth_Rep2
Use % as the unit, but write only the number.

[
  {
    "compound": "O=C(O)[C@H]1/C(=C/CO)O[C@@H]2CC(=O)N21 [Clavulanate potassium]",
    "result-number": 86.6
  },
  {
    "compound": "O=C1NC(c2c[nH]c3ccc(O)cc23)=C/C1=C1\\C(=O)Nc2ccccc21",
    "result-number": 91.7
  },
  {
    "compound": "O=C(O)CCC(=O)OC[C@@H](NC(=O)C(Cl)Cl)[C@H](O)c1ccc([N+](=O)[O-])cc1 [Chloramphenicol succinate]",
    "result-number": 95.2
  },
  {
    "compound": "C/C=C/C1=CC(=O)[C@@H](O)[C@@H]1O",
    "result-number": 46.1
  }
]

INPUT: Lookup: activity at 2 µg/mL / P. falciparum 3D7 parasites / C[C@@H]1C[C@@H]([C@H](O)CC2CC(=O)NC(=O)C2)C(=O)[C@@H](C)C1 [cycloheximide, reference compound]
OUTPUT: 0.69

INPUT: # value lookup — system P. falciparum 3D7 parasites, readout activity at 2 µg/mL, item CC1CCCCCC(=O)c2c(O)cc(O)cc2CC(=O)O1 (stereo not drawn)
OUTPUT: 122
